Tested on: OVCAR-8 ovarian
PROCEDURE DETAILS: NCI tumour cell line growth inhibition, 48 h

# COMPOUND, STUDY TARGET, TGI
records = [
    ("OCC(CO)CC1COc2ccccc2O1 (stereo unspecified)", "OVCAR-8 ovarian", "> 10 µM"),
    ("COCCn1cc(-c2csc(-c3c[nH]c4ccc(F)cc34)n2)c2cccnc21", "OVCAR-8 ovarian", "> 100 µM"),
    ("C=C1C(=O)OC2C1CC1OC2C(C)CCC/C(C)=C\\CCC1(C)O (stereo unspecified)", "OVCAR-8 ovarian", "31.4 µM"),
    ("COc1cc(Nc2ncc(-c3ccccc3)o2)cc(OC)c1OC", "OVCAR-8 ovarian", "> 25 µM"),
    ("COc1cccc(C2c3cc4c(cc3OC(N3CCOCC3)C2C)OCO4)c1 (stereo unspecified)", "OVCAR-8 ovarian", "> 100 µM"),
    ("Cc1ccc(Oc2cc(C)ccc2P(=O)(O)O)cc1", "OVCAR-8 ovarian", "> 100 µM"),
]

====

Tested on: OVCAR-8 ovarian
PROCEDURE DETAILS: NCI tumour cell line growth inhibition, 48 h

# COMPOUND, TGI
measured = [
    ("CCSc1nn(-c2c3ccccc3nc3ccccc23)c(=S)s1", "> 100 µM"),
    ("C/C(=N\\NC(=S)Nc1ccc([N+](=O)[O-])cc1S(=O)(=O)O)c1ccccn1", "> 100 µM"),
    ("Cn1cc(/C=C2\\C(=O)Nc3cccnc32)c2ccccc21", "> 25 µM"),
    ("CC1=NN(C(=O)Cc2ccccc2)C(=O)/C1=C\\c1cccc(O)c1", "> 100 µM"),
    ("CC1Oc2c(c(O)cc3oc(=O)cc(-c4ccccc4)c23)C(=O)C1C (configuration not stated)", "> 100 µM"),
    ("N#CC(C#N)=C/C=C/c1cccc([N+](=O)[O-])c1", "1.36 µM"),
    ("Cc1cn(C2CC(O)C(Cn3cc(Cn4nc(Br)c(=O)[nH]c4=O)nn3)O2)c(=O)[nH]c1=O (configuration not stated)", "> 100 µM"),
    ("Cc1cc(I)cc(CN(C)CCCCN2CCCC2)c1O", "> 100 µM"),
    ("O=C(O)C(O)C(O)C1[O][Sb][O]C1CO (configuration not stated)", "> 100 µM"),
    ("Cc1cc(C(=O)NCCN(C)C)c2nc3ccccc3nc2c1", "> 76.6 µM"),
    ("CC(C)S(=O)(=O)n1c(N)nc2ccc(/C(=N/O)c3ccccc3)cc21", "> 100 µM"),
    ("Cc1cccc(/C=N/NC(=S)NC(C)(C)C)n1", "> 100 µM"),
    ("CCCC/C(C)=N/NC(N)=S", "> 100 µM"),
    ("COC(=N)/C(=C1\\OC(N)=C(c2ccc(Cl)cc2)C1=O)c1ccc(Cl)cc1", "> 100 µM"),
    ("COc1cc([N+](=O)[O-])c2ncccc2c1O", "> 100 µM"),
    ("NC(=O)c1ccc(-c2c3ccccc3cc3c2ccc2ccccc23)cc1", "36.3 µM"),
    ("NC(=NC1C2CC3CC(C2)CC1C3)Nc1ccc(I)cc1 (configuration not stated)", "23.4 µM"),
    ("COc1ccc(/C=C(\\C#N)c2nc(-c3cc4ccccc4oc3=O)cs2)cc1", "44.4 µM"),
    ("CC(C)=CCC[C@](C)(O)[C@H]1CC[C@]2(C)[C@@H]1CC[C@@H]1[C@@]3(C)CC[C@H](OC(=O)CCC(=O)O)C(C)(C)[C@@H]3CC[C@]12C", "> 100 µM"),
    ("Cc1ccc(C)c(NC(=O)CCc2n[nH]c(=S)o2)c1", "> 100 µM"),
    ("CC(=O)Oc1ccc(-c2c(OC(C)=O)c(OC(C)=O)c(-c3ccc(OC(C)=O)c(OC(C)=O)c3)c(OC(C)=O)c2OC(C)=O)cc1", "28.2 µM"),
    ("CCn1c2ccccc2c2cc(NC(=O)c3c(C)[nH]c(=O)[nH]c3=S)ccc21", "> 100 µM"),
    ("Cc1nc(-c2ccc(Cl)cc2)cn2c1nc1ccccc12", "> 100 µM"),
    ("CN(c1ccccc1)c1c(-c2ccccc2)c(=O)oc2c1ccc1occc12", "> 100 µM"),
    ("COc1cc(/C=C2\\N=C(c3ccccc3)N(c3ccc(C(=O)c4ccccc4)cc3N3C(=O)/C(=C/c4cc(OC)c(OC)c(OC)c4)N=C3c3ccccc3)C2=O)cc(OC)c1OC", "73.2 µM"),
    ("COC(=O)[C@]12CCC(=O)N1[C@H](C(=O)O)Cc1c2[nH]c2ccccc12", "> 100 µM"),
    ("Fc1ccccc1C1SCC2=Nc3ccccc3CN21 (configuration not stated)", "> 100 µM"),
    ("O=C(c1ccccc1)c1ccc2c(c1)N=C(c1ccc(Cl)c(Cl)c1)CC(c1ccc3ccccc3c1)N2 (configuration not stated)", "> 100 µM"),
    ("COc1cc2c(cc1OCc1ccccc1)NC(=O)[C@@H]1C[C@@H](O)CN1C2=O", "> 100 µM"),
    ("Cc1cc(=O)[nH]c(S(=O)(=O)NC(=S)Nc2ccc(Br)cc2)n1", "> 100 µM"),
    ("Cc1ccc(Nc2ccnc(Nc3cccc(C(N)=O)c3)n2)cc1O", "> 25 µM"),
    ("O=C(/C=C/c1cccs1)Nc1ncc(Cc2ccccc2F)s1", "> 100 µM"),
    ("Cn1c(=O)n2n(c1=O)C1C(=CC2)C2C=CC1n1c(=O)n(C)c(=O)n12 (configuration not stated)", "> 100 µM"),
    ("Clc1cccc(Cl)c1C1ON=C(c2ccccc2)N1C12CC3CC(CC(C3)C1)C2 (configuration not stated)", "> 100 µM"),
    ("C[Si](C)(C)[C@@]1([Se]c2ccccc2)CC[C@@H]1C(=O)c1ccccc1", "> 100 µM"),
    ("COc1ccc(-c2nc(N)nc(-c3cc(C)ccc3O)c2Cl)cc1", "> 100 µM"),
    ("COc1ccc(C2CC(C)=Nc3c([nH]c(=S)[nH]c3=O)N2)cc1 (configuration not stated)", "35.7 µM"),
    ("O=C(O)C1(Cc2ccc3c(c2)CCC3)Cc2cc3c(cc2C1)CCC3", "> 100 µM"),
    ("CC12CC(=O)NN=C1c1ccccc1C2 (configuration not stated)", "> 100 µM"),
    ("O=C(O)c1cc2c(cc1CC(Cc1ccccc1)C(=O)O)CCC2 (configuration not stated)", "> 100 µM"),
    ("Nc1ccccc1C#Cc1ccccc1C#CCCCCO", "49.4 µM"),
    ("COc1ccc2c3c([nH]c2c1)[C@H]1C[C@H]2[C@H](C[C@@H](O)[C@H](OC)[C@H]2C(=O)O)CN1CC3", "> 100 µM"),
]

Reference source for all entries: PubChem BioAssay (NCI)
